- Target of assay: MBP-FoxP1dN (Mus musculus, UniProt P58462 326-579)
- Sequence: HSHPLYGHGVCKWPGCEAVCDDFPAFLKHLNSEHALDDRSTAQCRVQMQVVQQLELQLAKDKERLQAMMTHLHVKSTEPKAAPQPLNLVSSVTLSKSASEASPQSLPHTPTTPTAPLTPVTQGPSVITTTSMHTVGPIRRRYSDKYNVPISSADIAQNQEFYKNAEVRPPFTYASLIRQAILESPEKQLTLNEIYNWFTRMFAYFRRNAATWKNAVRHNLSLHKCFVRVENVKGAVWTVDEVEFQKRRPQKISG
- Procedure text: PD-seq (MBP pull-down with sequencing); 20 mM Tris-HCl pH 7.5, 100 mM NaCl, 1.5 mM MgCl2, 0.4 uM protein, 0.1 uM dsDNA library, 30 min, room temperature, amylose pull-down; high values mean tight binding
- Setup conditions: protein: recombinant; tags: His6-MBP; chain copies: 2; dsDNA, one strand shown
Whole data set: some 16,000 sequences, median “rpm ratio (pull-down/input)” near 0.94, cut for the highest 2% near 1.7. The full list was thinned out, with the highest values kept by preference.
# Lookup of reported binding signal keyed by entry

- Residues: "GATGATTGTTCTCCCAGCTGATGAATTGCAAACATCGAGTAAACAAATTTTCCTAATCTTTCTGTTCAAGCGCCATCTAC"
  binding signal: "2.29 RPM ratio (pull-down/input)"
- Residues: "GATGATTGTTCTCCCAGCTGATGAATTTCTGCAATCGAGTAAACAAATTTTCCTAATCTTTCTGTTCAAGCGCCATCTAC"
  binding signal: "1.1 RPM ratio (pull-down/input)"
- Residues: "GATGATTGTTCTCCCAGCTGATGAATTGCAGCAATCGAGTAAACAAATTTTCCTAATCTTTCTGTTCAAGCGCCATCTAC"
  binding signal: "1.33 RPM ratio (pull-down/input)"
- Residues: "GATGATTGTTCTCCCAGCTGATGAATTCCTTGTTTCGAGTAAACAAATTTTCCTAATCTTTCTGTTCAAGCGCCATCTAC"
  binding signal: "0.969 RPM ratio (pull-down/input)"
- Residues: "GATGATTGTTCTCCCAGCTGATGAATTCCTGAACTCGAGTAAACAAATTTTCCTAATCTTTCTGTTCAAGCGCCATCTAC"
  binding signal: "0.79 RPM ratio (pull-down/input)"
- Residues: "GATGATTGTTCTCCCAGCTGATGAATTGCAATCATCGAGTAAACAAATTTTCCTAATCTTTCTGTTCAAGCGCCATCTAC"
  binding signal: "1.48 RPM ratio (pull-down/input)"
- Residues: "GATGATTGTTCTCCCAGCTGATGAATTTGCAACATCGAGTAAACAAATTTTCCTAATCTTTCTGTTCAAGCGCCATCTAC"
  binding signal: "1.7 RPM ratio (pull-down/input)"
- Residues: "GATGATTGTTCTCCCAGCTGATGAATTAATGTCCTCGAGTAAACAAATTTTCCTAATCTTTCTGTTCAAGCGCCATCTAC"
  binding signal: "0.913 RPM ratio (pull-down/input)"
- Residues: "GATGATTGTTCTCCCAGCTGATGAATTCGATCCGTCGAGTAAACAAATTTTCCTAATCTTTCTGTTCAAGCGCCATCTAC"
  binding signal: "0.886 RPM ratio (pull-down/input)"
- Residues: "GATGATTGTTCTCCCAGCTGATGAATTCACCGCCTCGAGTAAACAAATTTTCCTAATCTTTCTGTTCAAGCGCCATCTAC"
  binding signal: "0.899 RPM ratio (pull-down/input)"

Challenge: Recall the reported binding signal of `GATGATTGTTCTCCCAGCTGATGAATTCGTTCAATCGAGTAAACAAATTTTCCTAATCTTTCTGTTCAAGCGCCATCTAC` on MBP-FoxP1dN (Mus musculus, UniProt P58462 326-579) and write it down.
Response given: 0.909 RPM ratio (pull-down/input)

Challenge: Recall the reported binding signal of `GATGATTGTTCTCCCAGCTGATGAATTCATCCACTCGAGTAAACAAATTTTCCTAATCTTTCTGTTCAAGCGCCATCTAC` on MBP-FoxP1dN (Mus musculus, UniProt P58462 326-579) and write it down.
Response given: 0.832 RPM ratio (pull-down/input)

Challenge: Recall the reported binding signal of `GATGATTGTTCTCCCAGCTGATGAATTAGCCGTATCGAGTAAACAAATTTTCCTAATCTTTCTGTTCAAGCGCCATCTAC` on MBP-FoxP1dN (Mus musculus, UniProt P58462 326-579) and write it down.
Response given: 0.934 RPM ratio (pull-down/input)

Challenge: Recall the reported binding signal of `GATGATTGTTCTCCCAGCTGATGAATTTCTTGTTTCGAGTAAACAAATTTTCCTAATCTTTCTGTTCAAGCGCCATCTAC` on MBP-FoxP1dN (Mus musculus, UniProt P58462 326-579) and write it down.
Response given: 1.14 RPM ratio (pull-down/input)

Challenge: Recall the reported binding signal of `GATGATTGTTCTCCCAGCTGATGAATTATCCATTTCGAGTAAACAAATTTTCCTAATCTTTCTGTTCAAGCGCCATCTAC` on MBP-FoxP1dN (Mus musculus, UniProt P58462 326-579) and write it down.
Response given: 0.915 RPM ratio (pull-down/input)

----------
- Target of assay: MBP-FoxP1dN (Mus musculus, UniProt P58462 326-579)
- Sequence: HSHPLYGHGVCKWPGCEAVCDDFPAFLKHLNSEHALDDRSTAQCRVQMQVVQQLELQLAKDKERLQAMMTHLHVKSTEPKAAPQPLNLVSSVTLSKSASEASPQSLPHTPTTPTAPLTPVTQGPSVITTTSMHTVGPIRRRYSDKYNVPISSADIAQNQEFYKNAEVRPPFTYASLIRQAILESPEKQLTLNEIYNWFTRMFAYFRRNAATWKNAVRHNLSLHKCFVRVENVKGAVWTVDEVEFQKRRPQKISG
- Procedure text: PD-seq (MBP pull-down with sequencing); 20 mM Tris-HCl pH 7.5, 100 mM NaCl, 1.5 mM MgCl2, 0.4 uM protein, 0.1 uM dsDNA library, 30 min, room temperature, amylose pull-down; high values mean tight binding
- Setup conditions: protein: recombinant; tags: His6-MBP; chain copies: 2; dsDNA, one strand shown
In all, about 16,000 sequences were measured (“rpm ratio (pull-down/input)”: median about 0.94, highest 2% from about 1.7 on). The list comes from a sample in which the highest values are over-represented; it also holds close analogues and randomly drawn sequences.
# Lookup of reported binding signal keyed by entry

Please review the entries below; each comes with its answer.
- Residues: "GATGATTGTTCTCCCAGCTGATGAATTCTTTTTGTCGAGTAAACAAATTTTCCTAATCTTTCTGTTCAAGCGCCATCTAC"
  Experimental readout: "binding signal"
  Measured result: "0.964 RPM ratio (pull-down/input)"
- Residues: "GATGATTGTTCTCCCAGCTGATGAATTTCGCATGTCGAGTAAACAAATTTTCCTAATCTTTCTGTTCAAGCGCCATCTAC"
  Experimental readout: "binding signal"
  Measured result: "0.944 RPM ratio (pull-down/input)"
- Residues: "GATGATTGTTCTCCCAGCTGATGAATTAAGAGAATCGAGTAAACAAATTTTCCTAATCTTTCTGTTCAAGCGCCATCTAC"
  Experimental readout: "binding signal"
  Measured result: "0.949 RPM ratio (pull-down/input)"

Challenge: Specify reported binding signal for the sequence shown: `GATGATTGTTCTCCCAGCTGATGAATTTGTATTTTCGAGTAAACAAATTTTCCTAATCTTTCTGTTCAAGCGCCATCTAC`
Response given: 2.62 RPM ratio (pull-down/input)

Challenge: Specify reported binding signal for the sequence shown: `GATGATTGTTCTCCCAGCTGATGAATTCAATTTGTCGAGTAAACAAATTTTCCTAATCTTTCTGTTCAAGCGCCATCTAC`
Response given: 1.07 RPM ratio (pull-down/input)

Challenge: Specify reported binding signal for the sequence shown: `GATGATTGTTCTCCCAGCTGATGAATTCCAGGCTTCGAGTAAACAAATTTTCCTAATCTTTCTGTTCAAGCGCCATCTAC`
Response given: 0.758 RPM ratio (pull-down/input)

Challenge: Specify reported binding signal for the sequence shown: `GATGATTGTTCTCCCAGCTGATGAATTGACAGGATCGAGTAAACAAATTTTCCTAATCTTTCTGTTCAAGCGCCATCTAC`
Response given: 1.1 RPM ratio (pull-down/input)

----------
# Lookup of reported binding signal keyed by entry
- Target of assay: MBP-FoxP1dN (Mus musculus, UniProt P58462 326-579)
- Sequence: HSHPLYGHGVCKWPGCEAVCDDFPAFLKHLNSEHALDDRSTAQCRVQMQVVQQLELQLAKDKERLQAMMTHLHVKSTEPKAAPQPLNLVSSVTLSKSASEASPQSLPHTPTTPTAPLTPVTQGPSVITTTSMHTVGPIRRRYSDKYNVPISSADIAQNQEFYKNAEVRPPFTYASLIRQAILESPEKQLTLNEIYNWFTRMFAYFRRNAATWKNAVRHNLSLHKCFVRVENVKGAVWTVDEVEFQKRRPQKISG
- Procedure text: PD-seq (MBP pull-down with sequencing); 20 mM Tris-HCl pH 7.5, 100 mM NaCl, 1.5 mM MgCl2, 0.4 uM protein, 0.1 uM dsDNA library, 30 min, room temperature, amylose pull-down; high values mean tight binding
- Setup conditions: protein: recombinant; tags: His6-MBP; chain copies: 2; dsDNA, one strand shown
Whole data set: some 16,000 sequences, median “rpm ratio (pull-down/input)” near 0.94, cut for the highest 2% near 1.7. The list comes from a sample in which the highest values are over-represented; it also holds close analogues and randomly drawn sequences.

- Residues: "GATGATTGTTCTCCCAGCTGATGAATTGAACGTCTCGAGTAAACAAATTTTCCTAATCTTTCTGTTCAAGCGCCATCTAC"
  Measured result: "0.787 RPM ratio (pull-down/input)"
- Residues: "GATGATTGTTCTCCCAGCTGATGAATTTTGTCTGTCGAGTAAACAAATTTTCCTAATCTTTCTGTTCAAGCGCCATCTAC"
  Measured result: "1.02 RPM ratio (pull-down/input)"
- Residues: "GATGATTGTTCTCCCAGCTGATGAATTAGCTTACTCGAGTAAACAAATTTTCCTAATCTTTCTGTTCAAGCGCCATCTAC"
  Measured result: "0.938 RPM ratio (pull-down/input)"

Challenge: Specify reported binding signal for the sequence shown: `GATGATTGTTCTCCCAGCTGATGAATTTGTTCTGTCGAGTAAACAAATTTTCCTAATCTTTCTGTTCAAGCGCCATCTAC`
Response given: 1.07 RPM ratio (pull-down/input)
